Recorded IC50 values for a group of compounds are listed next.
# experimental-system: Aurora-A (Homo sapiens)
# Construct: purchased Sigma-Aldrich
# protocol-summary: Radiometric protein kinase assay, Aurora-A
# Type: biochemical
# conditions: radiometric kinase assay, 33P-ATP, average of three independent experiments; read-out: IC50 Values, Aurora-A
Could you give me the number in nM? Just the number is fine.

Here are 2 compounds together with their reported answers.
compound: COc1ccc2c3c(c4cc(OC)c(O)cc4c2c1)CN1CCC[C@H]1[C@H]3O [Compound 5, 14α-hydroxy-6-demethyl Tylophorinine]
unit-descriptor: nM
IC50: 600
--
compound: COc1ccc2c3c(c4cc(OC)c(O)cc4c2c1)C[N+]1([O-])CCCC1C3O (stereo not shown)
unit-descriptor: nM
IC50: 2600

Here is the next item to consider.
Input: Item under review: `COc1cc2c3c(c4cc(OC)c(OC)cc4c2cc1OC)[C@@H](O)[C@H]1CCCN1C3` . Reported IC50?
Output: 16200

====

Catalogue of molecules with associated pIC50
# Tested on: MCF-7
# protocol-summary: MTT anti-proliferative assay, MCF-7
# Format: cell-based
# conditions: Homo sapiens, MCF7, 48 h, read-out: IC50 ± SD, MCF-7
# Description: The cells proliferations were determined by MTT [3-(4,5-dimethylthiazol-2-yl)-2,5-diphenyltetrazolium bromide] assays, wherein MTT color intensity was directly associated with the number of healthy, living cells. […] The IC50 values as µM were determined after 48-h of compounds incubations with the cells. The assays were determined as mean ± SD: Standard Deviation (n = 3) (p < 0.005, compared with the standard value).
// field semantics: pIC50 = negative decimal log of concentration (mol/L)

molecule: COc1ccc2c3c(c4cc(OC)c(OC)cc4c2c1)CN1CCC[C@H]1[C@@H]3O
pIC50: 4.50

--- query ---
Input: Under MCF-7: pIC50 value of COc1cc2c3c(c4cc(OC)c(OC)cc4c2cc1OC)CN1CCC[C@@H]1C3 [Compound 1, (-)-Tylophorine] ?
Output: 3.90

====

# Test system: HCT-116
# protocol-summary: MTT anti-proliferative assay, HCT-116
# Type: cell-based, Human
# conditions: Homo sapiens, HCT-116, 48 h, read-out: IC50 ± SD, HCT-116
assay-metric: IC50

compound: COc1ccc(C2=C(c3ccc(OC)c(OC)c3)CN3CCCC3C2)cc1OC (stereo not drawn)
assay-metric: IC50
assay-result: > 200 µM
--
compound: COc1ccc2c3c(c4cc(OC)c(OC)cc4c2c1)CN1CCC[C@H]1[C@@H]3O
assay-metric: IC50
assay-result: 87 µM

// next entry
Input: For the compound COc1cc2c3c(c4cc(OC)c(OC)cc4c2cc1OC)CN1CCC[C@@H]1C3 [Compound 1, (-)-Tylophorine] , what IC50 is on record?
Output: 142 µM

====

# Test system: HepG2
# protocol-summary: MTT anti-proliferative assay, HepG2
# Format: cell-based, Human
# conditions: Homo sapiens, HepG2, 48 h, read-out: IC50 ± SD, HepG2
assay-metric: pIC50
Remember the convention: pIC50 equals -log10 of concentration in molar.

molecule: COc1ccc2c3c(c4cc(OC)c(OC)cc4c2c1)CN1CCC[C@H]1[C@@H]3O
experimental-system: HepG2
assay-result: 4.62

// next item, pIC50 requested
Input: Look up pIC50: COc1cc2c3c(c4cc(OC)c(OC)cc4c2cc1OC)CN1CCC[C@@H]1C3 [Compound 1, (-)-Tylophorine]
Output: 4.40

====

Let's look at some molecules and their measured pIC50.
# experimental-system: Aurora-A (Homo sapiens, UniProt O14965)
# Construct: purchased Sigma-Aldrich
# Sequence (O14965 1-403): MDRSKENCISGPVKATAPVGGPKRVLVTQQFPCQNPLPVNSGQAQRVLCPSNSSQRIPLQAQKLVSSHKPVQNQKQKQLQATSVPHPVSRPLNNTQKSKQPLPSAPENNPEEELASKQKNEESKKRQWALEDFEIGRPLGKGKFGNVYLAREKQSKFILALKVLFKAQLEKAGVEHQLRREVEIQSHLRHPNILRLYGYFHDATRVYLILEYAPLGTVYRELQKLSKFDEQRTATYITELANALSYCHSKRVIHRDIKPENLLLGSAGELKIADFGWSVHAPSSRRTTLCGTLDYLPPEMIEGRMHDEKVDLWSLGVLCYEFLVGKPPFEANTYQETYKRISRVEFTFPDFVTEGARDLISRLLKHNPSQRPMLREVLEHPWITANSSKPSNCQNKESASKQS
# protocol-summary: Radiometric protein kinase assay, Aurora-A
# Type: biochemical
Reminder that pIC50 is minus the log10 of a molar concentration.

molecule: COc1cc2c3c(c4cc(OC)c(OC)cc4c2cc1OC)CN1CCC[C@@H]1C3 [Compound 1, (-)-Tylophorine]
pIC50: 4.67

Consider the additional molecule presented here.
Input: Checklist item: pIC50 tested on Aurora-A (Homo sapiens, UniProt O14965), entry COc1ccc2c3c(c4cc(OC)c(OC)cc4c2c1)CN1CCC[C@H]1[C@@H]3O [Compound 3] , value?
Output: 5.39

====

# experimental-system: Aurora-B (Homo sapiens)
# Construct: purchased Sigma-Aldrich
# protocol-summary: Radiometric protein kinase assay, Aurora-B
# Format: biochemical
Reported pIC50 values for a set of molecules
In plain terms, pIC50 is the concentration in mol/L turned into minus its base-10 logarithm.

molecule: COc1ccc2c3c(c4cc(OC)c(OC)cc4c2c1)CN1CCC[C@H]1[C@@H]3O
pIC50: 5.44

Input: Recorded pIC50 for COc1cc2c3c(c4cc(OC)c(OC)cc4c2cc1OC)CN1CCC[C@@H]1C3 [Compound 1, (-)-Tylophorine] , please?
Output: 4.74

====

# experimental-system: Aurora-B (Homo sapiens, UniProt Q96GD4)
# Construct: purchased Sigma-Aldrich
# Sequence (Q96GD4 whole entry): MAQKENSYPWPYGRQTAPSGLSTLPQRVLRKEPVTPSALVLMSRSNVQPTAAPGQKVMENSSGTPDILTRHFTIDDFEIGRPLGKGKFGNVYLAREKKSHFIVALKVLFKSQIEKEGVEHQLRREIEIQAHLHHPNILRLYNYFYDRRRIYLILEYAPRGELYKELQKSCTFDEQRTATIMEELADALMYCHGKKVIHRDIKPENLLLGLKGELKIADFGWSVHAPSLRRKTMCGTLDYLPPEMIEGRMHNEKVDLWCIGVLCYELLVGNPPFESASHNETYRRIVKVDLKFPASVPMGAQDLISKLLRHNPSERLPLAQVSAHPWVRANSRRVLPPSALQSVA
# protocol-summary: Radiometric protein kinase assay, Aurora-B
# Type: biochemical
# conditions: radiometric kinase assay, 33P-ATP, average of three independent experiments; read-out: IC50 Values, Aurora-B
assay-metric: IC50

compound: COc1ccc2c3c(c4cc(OC)c(OC)cc4c2c1)C[N+]1([O-])CCC[C@H]1[C@H]3O (stereo partly shown)
IC50: > 100 µM

compound: COc1ccc2c3c(c4cc(OC)c(O)cc4c2c1)C[N+]1([O-])CCCC1C3O (stereo not shown)
IC50: 6.5 µM

compound: COc1cc2c3c(c4cc(OC)c(OC)cc4c2cc1OC)[C@@H](O)[C@H]1CCCN1C3
IC50: 10.2 µM

Input: Using the record for COc1ccc2c3c(c4cc(OC)c(O)cc4c2c1)CN1CCC[C@H]1[C@H]3O [Compound 5, 14α-hydroxy-6-demethyl Tylophorinine] , report its IC50.
Output: 1.3 µM

Data provenance: paper PMC9144581
